- System: LNCaP
- measurement_protocol: SRB colorimetric cell growth inhibition assay, LNCaP
- Type: cell-based
- test_parameters: LN-caP; cell killing (cytotoxic effect); read-out: LC50 LN-caP
- Protocol: The finality of these assays is to interrupt the growth of an “in vitro” tumor cell culture by means a continued exhibition of the cells to the sample to be testing. A colorimetric type of assay, using sulforhodamine B (SRB) reaction has been adapted for a quantitative measurement of cell growth and viability (following the technique described by P. A. Skehan, et al., J. Natl. Cancer Inst. 1990, 82, 1107-1112). […] The values for mean +/− SD of data from triplicate wells are calculated. […]
property_label: CC50

{"columns": ["molecule", "tested_target", "property_label", "data_value"],
 "data": [
  ["COc1cc(-c2c3c4cc(OC)c(OC(=O)[C@H](C)N)cc4oc(=O)c3n3ccc4c(OC(=O)[C@H](C)N)c(OC)c(OC)cc4c23)ccc1OC(=O)[C@H](C)N [Compound 16]", "LNCaP", "CC50", "0.534 µM"],
  ["COc1cc2c(cc1O)oc(=O)c1c2c(-c2ccc(OC(=O)[C@H](C)N)c(OC)c2)c2c3cc(OC)c(O)cc3ccn21.Cl [Compound 238]", "LNCaP", "CC50", "16.5 µM"],
  ["COc1cc(-c2c3n(c4c(=O)oc5cc(OS(C)(=O)=O)c(OC)cc5c24)CCc2cc(OS(C)(=O)=O)c(OC)cc2-3)ccc1OS(C)(=O)=O [Compound 22]", "LNCaP", "CC50", "13.6 µM"],
  ["COc1cc(-c2c3c4cc(OC)c(OC(=O)[C@@H](N)Cc5ccccc5)cc4oc(=O)c3n3ccc4c(OC(=O)[C@@H](N)Cc5ccccc5)c(OC)c(OC)cc4c23)ccc1OC(=O)[C@@H](N)Cc1ccccc1 [Compound 207]", "LNCaP", "CC50", "4.1 µM"],
  ["COc1cc(-c2c3c4cc(OC)c(OC(=O)[C@H](C)N)cc4oc(=O)c3n3ccc4cc(O)c(OC)cc4c23)ccc1O.Cl [Compound 240]", "LNCaP", "CC50", "16.5 µM"],
  ["COc1cc(-c2c3c4cc(OC)c(OC(=O)[C@H](C)N)cc4oc(=O)c3n3ccc4c(OC(=O)[C@H](C)N)c(OC)c(OC)cc4c23)ccc1OC(=O)[C@H](C)N [Compound 191]", "LNCaP", "CC50", "5.36 µM"]
]}
